# assay-system: human H3 receptor (SK-N-MC cells) (Homo sapiens, UniProt Q9Y5N1)
# Construct: expressed in transfected cells; host or cells: SK-N-MC sublines with CRE-beta-galactosidase reporter
# Sequence (Q9Y5N1 whole entry): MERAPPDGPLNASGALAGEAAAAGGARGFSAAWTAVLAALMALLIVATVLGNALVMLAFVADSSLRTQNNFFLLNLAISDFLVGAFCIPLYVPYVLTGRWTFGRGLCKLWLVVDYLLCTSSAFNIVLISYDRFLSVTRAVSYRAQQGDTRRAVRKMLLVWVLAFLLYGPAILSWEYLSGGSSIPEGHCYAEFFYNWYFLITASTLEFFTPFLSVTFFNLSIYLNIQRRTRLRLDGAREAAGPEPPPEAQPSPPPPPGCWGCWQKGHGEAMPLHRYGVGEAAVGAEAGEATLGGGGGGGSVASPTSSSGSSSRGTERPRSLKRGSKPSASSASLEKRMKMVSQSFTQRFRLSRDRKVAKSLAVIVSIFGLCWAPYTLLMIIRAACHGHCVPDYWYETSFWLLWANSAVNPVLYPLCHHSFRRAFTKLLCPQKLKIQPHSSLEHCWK
# measurement-protocol: Cyclic AMP accumulation (β-galactosidase reporter, Schild analysis vs histamine)
# Type: cell-based
# setup-conditions: read-out: H3 pA2 (converted)
recorded-endpoint: Kb (nM)

# count of solved cases: 2
COc1ccc([C@H]2CN3CCC[C@H]3c3cc(OCCCN4CCCCC4)ccc32)c(OC)c1 (relative stereo) [Example 19] | 0.398
CSc1ccc([C@H]2CN3CCC[C@H]3c3ccc(C#CCCN4CCCCC4)cc32)cc1 (relative stereo) [Example 97B] | 10

P = FC(F)(F)c1ccc([C@H]2CN3CCC[C@H]3c3cc(OCCCN4CCCCC4)ccc32)cc1 (relative stereo) [Example 7A]
Q = CSc1ccc([C@H]2CN3CCC[C@H]3c3cc(C#CCCN4CCCCC4)ccc32)cc1 (relative stereo) [Example 98B]
Which record would sort first by descending Kb, P or Q ? Give the label under which the chosen entry appears.
P

a = O=[N+]([O-])c1cccc([C@@H]2CN3CCC[C@H]3c3cc(OCCCN4CCCCC4)ccc32)c1 (relative stereo) [Example 4B]
b = Fc1ccc([C@H]2CN3CCC[C@H]3c3cc(OCCCN4CCCCC4)ccc32)cc1 (relative stereo) [Example 14B]
c = c1cncc([C@H]2CN3CCC[C@H]3c3cc(OCCCN4CCCCC4)ccc32)c1 (relative stereo) [Example 26]
d = Ic1ccc([C@@H]2CN3CCC[C@H]3c3cc(OCCCN4CCCCC4)ccc32)cc1 (relative stereo) [Example 35A]
# sort list by recorded Kb, greatest to least Could you list the labels in the order requested?
d, b, a, c
(d: 3.98 nM, b: 0.794 nM, a: 0.158 nM, c: 0.0794 nM)
